Sourced from PubChem BioAssay (NCI)

method: NCI Yeast Anticancer Drug Screen. Data for the mlh1 rad18 strain (AID 175)
experimental-context: S. cerevisiae mlh1 rad18 strain growth inhibition; at 5.0 µM (retest, dose inferred, filed as 0.5); active compounds read high
Experimental: Growth inhibition of yeast strains with defined genetic alterations is measured as a screen for potential anti-cancer activity. Selected strains with alterations in DNA damage repair or cell cycle control were exposed to compounds and growth inhibition was measured relative to vehicle treated controls. The strain used in this assay is mlh1 rad18
The panel holds about 79,000 compounds, 15% with a hit somewhere; the sample as a whole holds those more often. Activity calls are given as the source filed them. No stated cut-off is given here; in the data, active means growth inhibition above about 70%; inactive means the rest.
measure: growth inhibition

Below: 2 molecules and their reported growth inhibition.
molecule	measure	value-measured
OCC1OC(NC(=S)NCSCCC(F)(F)C(F)(F)C(F)(F)C(F)(F)C(F)(F)C(F)(F)F)C(O)C(O)C1O (stereo unspecified)	growth inhibition	22% (inactive)
CC(=O)OC1=Cc2ccccc2C(c2ccccc2)c2ccccc21 (stereo unspecified)	growth inhibition	11% (inactive)

[in] Can you share its growth inhibition? I mean this molecule: `Nc1ccc2c(c1)CN1C(=O)c3ccccc3C1=N2`
[out] 11% (inactive)

[in] Can you share its growth inhibition? I mean this molecule: OC(CCN1CCOCC1)c1ccc(Sc2ccccc2)cc1 (stereo unspecified)
[out] 62% (inactive)

[in] Can you share its growth inhibition? I mean this molecule: COc1ccc2cc(C(=O)CCCC(C)C(=O)O)ccc2c1 (stereo unspecified)
[out] -12% (inactive)

[in] Can you share its growth inhibition? I mean this molecule: `O=[N+]([O-])c1cnc(F)c(Br)c1`
[out] 99% (active)

[in] Can you share its growth inhibition? I mean this molecule: COc1ccc2sc3c(C)ccc(NCC4CCCN5CCCCC45)c3c(=O)c2c1 (stereo unspecified)
[out] 27% (inactive)

[in] Can you share its growth inhibition? I mean this molecule: `O=C1C(Cl)=C(Nc2ccc(S(=O)(=O)O)cc2)C(=O)c2ccccc21`
[out] 26% (inactive)

[in] Can you share its growth inhibition? I mean this molecule: `Cc1ccc2c(c1)SSc1ccc(C)cc1SS2`
[out] 66% (inactive)

[in] Can you share its growth inhibition? I mean this molecule: `CN(Nc1ccc(Cl)cc1)c1ccc(Cl)cc1`
[out] -9% (inactive)

[in] Can you share its growth inhibition? I mean this molecule: COc1ccc(C(=O)C(c2ccc(OC)cc2)C2(O)C(=O)Nc3c(Cl)cc(Cl)cc32)cc1 (stereo unspecified)
[out] -18% (inactive)

---

method: NCI Yeast Anticancer Drug Screen. Data for the mec2-1 strain (AID 157)
experimental-context: S. cerevisiae mec2-1 strain, at 5.0 µM (retest, dose inferred, filed as 0.5), active compounds read high
Compounds without any hit were thinned out: in the full panel of roughly 79,000, 15% have a hit. Activity calls are given as the source filed them. Cut-off read from the data, not from the text of the source: active = growth inhibition above about 70%; inactive = the rest.
In this section, each of the compounds is paired with its reported growth inhibition.

Below: 8 compounds and their reported growth inhibition.
compound	value-measured
O=C(NNc1ncccn1)c1ccc(C(=O)NNc2ncccn2)cc1	0% (inactive)
CCCN(CCC)C(=O)CCC(C)=O	1% (inactive)
O=C1CCCC2c3ccccc3NC12 (centres undefined)	-50% (inactive)
CCCCCCCCCCCCSCCCN	-3% (inactive)
O=C1C(=C2C(=O)c3ccccc3[N+]2=O)N([O-])c2ccccc21	-6% (inactive)
CC(=O)OC(C)C1C2=C(C(=O)CC1(C)O)C(=O)c1c(ccc(-c3ccc4c(c3O)C(=O)C3=C(C4=O)C(C(C)OC(C)=O)C(C)(O)CC3=O)c1O)C2=O (centres undefined)	10% (inactive)
O=c1oc2ccccc2c(O)c1/C=N/C(=S)Nc1ccccc1	-3% (inactive)
O=C(Nc1ccc(/C=C/c2ccc(NC(=O)c3cc(S(=O)(=O)O)c4cccnc4c3O)cc2S(=O)(=O)O)c(S(=O)(=O)O)c1)c1cc(S(=O)(=O)O)c2cccnc2c1O	26% (inactive)

[in] Can you share its growth inhibition? I mean this compound: `O=C1c2cc(F)ccc2-c2c(F)cc(F)c(F)c21`
[out] 6% (inactive)

[in] Can you share its growth inhibition? I mean this compound: `CN(C)C=C1C(Cl)=C(C=O)CC(C=O)=C1Cl`
[out] 3% (inactive)

[in] Can you share its growth inhibition? I mean this compound: S=C1NC2=C(COC/C2=C\c2ccccc2Cl)C(c2ccccc2Cl)N1 (centres undefined)
[out] 47% (inactive)

[in] Can you share its growth inhibition? I mean this compound: COc1ccccc1C1c2cc3c(cc2OC2(OC)COC(=O)C12)OCO3 (centres undefined)
[out] 22% (inactive)

[in] Can you share its growth inhibition? I mean this compound: COc1cc([C@@H]2c3cc4c(cc3[C@@H](OC3OC5CO[C@@H](c6cccs6)OC5C(O)C3O)[C@H]3COC(=O)[C@H]23)OCO4)cc(OC)c1O (some centres undefined)
[out] 5% (inactive)

[in] Can you share its growth inhibition? I mean this compound: `Nc1nc(=O)[nH]c([O-])c1N=O.Nc1nc(=O)[nH]c([O-])c1N=O.[Ag+].[Ag+]`
[out] 44% (inactive)

[in] Can you share its growth inhibition? I mean this compound: `O=P1(Cc2ccccc2)c2ccccc2-c2ccccc21`
[out] -17% (inactive)

[in] Can you share its growth inhibition? I mean this compound: `CCOC(=O)CCC(=O)Oc1ccc2c(c1OC(=O)CCC(=O)OCC)C(=O)c1ccccc1C2=O`
[out] 11% (inactive)

[in] Can you share its growth inhibition? I mean this compound: `C1Cc2c3c4c(c5c2C(C1)CCC5)CCCC4CCC3`
[out] 1% (inactive)

[in] Can you share its growth inhibition? I mean this compound: `Cc1[nH]nc(C(=O)N/N=C/c2cccs2)c1N=NN(C)C`
[out] 15% (inactive)

[in] Can you share its growth inhibition? I mean this compound: CC[N+]1(C)CCC(O)(c2ccc(Cl)c(Cl)c2)C(C(=O)c2ccc(Cl)c(Cl)c2)C1 (centres undefined)
[out] 4% (inactive)

[in] Can you share its growth inhibition? I mean this compound: CC/C(C)=C1\CCC(CN2CCOCC2)C1=O (centres undefined)
[out] 20% (inactive)

[in] Can you share its growth inhibition? I mean this compound: CCOC(=O)C1CCC(=O)O1 (centres undefined)
[out] 3% (inactive)

---

method: NCI Yeast Anticancer Drug Screen. Data for the sgs1 mgt1 strain (AID 161);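 further: 0% = growth of cultures given vehicle only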
experimental-context: S. cerevisiae sgs1 mgt1 strain, at 50.0 µM (retest, dose inferred, filed as 5.0), active compounds read high
The panel holds about 79,000 compounds, 15% with a hit somewhere; the sample as a whole holds those more often.
In this section, each of the molecules is paired with its reported growth inhibition.
Give just the numeric value; % need not be written.

Below: 5 molecules and their reported growth inhibition.
molecule	growth inhibition (%)
CCC1C(c2ccccc2O)c2cc3c(cc2OC1N1CCOCC1)OCO3 (stereo unspecified)	98
CCOC(=O)c1nnc2cc(-c3ccccc3)nn2c1-c1ccccc1	80
O=C(NNc1ncccn1)c1ccc(C(=O)NNc2ncccn2)cc1	100
CCOC(=O)c1cnccc1CC1(C#N)c2ccccc2C=CN1C(=O)c1ccccc1 (stereo unspecified)	67
COc1ccc(C2c3cn[nH]c3CC3CCCCC32)cc1 (stereo unspecified)	98

# next molecule below
[in] Can you share its growth inhibition? I mean this molecule: `CCOC(=O)c1ccc(N=Cc2cc(Cl)cc(Cl)c2O)cc1`
[out] 84

---

method: NCI Yeast Anticancer Drug Screen. Data for the mlh1 rad18 strain (AID 175)
experimental-context: S. cerevisiae mlh1 rad18 strain growth inhibition; at 5.0 µM (retest, dose inferred, filed as 0.5); active compounds read high
This is part of a sample that, as a whole, favours compounds with a hit. Of some 79,000 tested, about 15% had one in any assay.
measure: growth inhibition (%)
Give just the numeric value; % need not be written.

compound	measure	value-measured
O=C(O)/C=C/c1ccc(Cl)c(Cl)c1	growth inhibition	-17
CC(=O)n1c(=S)n(C(C)=O)c2ccccc21	growth inhibition	-13
CCCCC(CC)CCC(C)OC(=O)C(O)c1ccccc1 (stereo unspecified)	growth inhibition	-4
O=C(CNC(=O)Nc1ccc(NC(=O)NCC(=O)Nc2ccc(C3=NCCN3)cc2)cc1)Nc1ccc(C2=NCCN2)cc1	growth inhibition	4

# next compound below
[in] Can you share its growth inhibition? I mean this compound: `Cc1cc(C=Nc2ccccc2)c(O)c2ncccc12`
[out] 14

---

method: NCI Yeast Anticancer Drug Screen. Data for the mlh1 rad18 strain (AID 175)
experimental-context: S. cerevisiae mlh1 rad18 strain growth inhibition; at 5.0 µM (retest, dose inferred, filed as 0.5); active compounds read high
About 79,000 compounds went through this panel and 15% of them were active in at least one assay; those are over-represented in the sample as a whole.
In this section, each of the compounds is paired with its reported growth inhibition.
Give just the numeric value; % need not be written.

compound	growth inhibition, %
Oc1ccc(C(c2ccccc2)(c2ccccc2)c2ccccc2)cc1O	0

[in] Can you share its growth inhibition? I mean this compound: CCCCCCCCCCCCCC(N)c1ccc(C)cc1 (stereo unspecified)
[out] 33

[in] Can you share its growth inhibition? I mean this compound: `Cc1ccc(Sc2ccc3ccccc3n2)cc1`
[out] 0

[in] Can you share its growth inhibition? I mean this compound: `CC(C)(C)c1ccc(-c2nnc(SCc3ccc(Cl)cc3)n2-c2cccc(C(F)(F)F)c2)cc1`
[out] -28

[in] Can you share its growth inhibition? I mean this compound: `Nc1ccccc1/C=C1/Sc2cc[nH]c2C1=O`
[out] 3

[in] Can you share its growth inhibition? I mean this compound: `Cc1ccc(C(=O)/C(Cl)=N/O)cc1`
[out] 27
